Measured values drawn from ChEMBL document CHEMBL4392838 for this set.

Test system: MCF7
Assay: Antiproliferative activity against human MCF7 cells assessed as reduction in cell growth measured after 48 hrs by MTT assay
Assay type: functional, cell-based
Conditions: MCF7, 48 h
Listed compounds paired with reported IC50

Q: GET /values?readout=IC50&item= COc1ccc(-c2nc(=O)n(Cc3cnc(Cl)s3)c3sc4c(c23)CCC(C(C)(C)C)C4)cc1 (stereo not drawn)
Ans: > 100 µM

Q: GET /values?readout=IC50&item= `COc1cc(OC)c2c(=O)[nH]c(-c3cc(C)c(OCCO)c(C)c3)nc2c1`
Ans: > 300 µM

Q: GET /values?readout=IC50&item= Cc1noc(C)c1Cn1c(=O)nc(-c2ccccc2)c2c3c(sc21)CC(C(C)(C)C)CC3 (stereo not drawn)
Ans: > 100 µM
